# Experimental target: PDGFRB(DKIN) (PDGFR-β) (Homo sapiens, UniProt P09619)
# Construct: PDGFRB(DKIN)
# Protocol text: Phage-display competitive binding assay, PDGFRB(DKIN)
# Study conditions: T7 phage displaying human PDGFR-β, DKIN construct; read-out: Binding Assay: PDGFRB(DKIN)
# Protocol: The term “ND” represents non-determined values. Briefly, T7 phage displaying human PDGFR-β were incubated with an affinity matrix coated with known PDGFR-β inhibitor in the presence of various concentrations of the soluble competitor molecules.

[
  {
    "Compound": "COc1cc(OC)nc(Oc2ccccc2C(=O)Nc2ccc(NC(=O)Nc3cc(C(C)(C)C)on3)cc2)n1 [Compound N47]",
    "Experimental target": "PDGFRB(DKIN) (PDGFR-β) (Homo sapiens, UniProt P09619)",
    "Kd": "100 to 1000 nM"
  },
  {
    "Compound": "CC(C)(C)c1cc(NC(=O)Nc2ccc(NC(=O)c3cnnc4ccccc34)cc2)no1",
    "Experimental target": "PDGFRB(DKIN) (PDGFR-β) (Homo sapiens, UniProt P09619)",
    "Kd": "< 100 nM"
  },
  {
    "Compound": "CC(C)(C)c1cc(NC(=O)Nc2ccc(NC(=O)c3ccc(Cl)nc3)cc2)no1",
    "Experimental target": "PDGFRB(DKIN) (PDGFR-β) (Homo sapiens, UniProt P09619)",
    "Kd": "100 to 1000 nM"
  },
  {
    "Compound": "Cc1nc(C(=O)Nc2ccc(NC(=O)Nc3cc(C(C)(C)C)on3)cc2)nn1-c1cc(Cl)cc(Cl)c1",
    "Experimental target": "PDGFRB(DKIN) (PDGFR-β) (Homo sapiens, UniProt P09619)",
    "Kd": "100 to 1000 nM"
  },
  {
    "Compound": "CC(C)(C)c1cc(NC(=O)Nc2ccc(NC(=O)/C=C/c3ccccc3Cl)cc2)no1",
    "Experimental target": "PDGFRB(DKIN) (PDGFR-β) (Homo sapiens, UniProt P09619)",
    "Kd": "100 to 1000 nM"
  },
  {
    "Compound": "CC1CN(CCOc2ccc(NC(=O)Nc3cc(C(C)(C)C)on3)cc2)CC(C)O1 (stereo not drawn)",
    "Experimental target": "PDGFRB(DKIN) (PDGFR-β) (Homo sapiens, UniProt P09619)",
    "Kd": "100 to 1000 nM"
  },
  {
    "Compound": "CC(C)(C)c1cc(NC(=O)Nc2ccc(OCc3c(Cl)cccc3Cl)cc2)no1",
    "Experimental target": "PDGFRB(DKIN) (PDGFR-β) (Homo sapiens, UniProt P09619)",
    "Kd": "100 to 1000 nM"
  },
  {
    "Compound": "COc1cc(OC)nc(Nc2cccc(C(=O)Nc3ccc(NC(=O)Nc4cc(C(C)(C)C)on4)cc3)c2)n1",
    "Experimental target": "PDGFRB(DKIN) (PDGFR-β) (Homo sapiens, UniProt P09619)",
    "Kd": "100 to 1000 nM"
  },
  {
    "Compound": "CC(C)(C)c1cc(NC(=O)Nc2ccc(CCc3ccc(N)cc3)cc2)no1",
    "Experimental target": "PDGFRB(DKIN) (PDGFR-β) (Homo sapiens, UniProt P09619)",
    "Kd": "< 100 nM"
  },
  {
    "Compound": "Cc1cnc(C(=O)Nc2ccc(NC(=O)Nc3cc(C(C)(C)C)on3)cc2)cn1",
    "Experimental target": "PDGFRB(DKIN) (PDGFR-β) (Homo sapiens, UniProt P09619)",
    "Kd": "< 100 nM"
  },
  {
    "Compound": "Cc1ccc(COc2ccc(NC(=O)Nc3cc(C(C)(C)C)on3)cc2)cc1",
    "Experimental target": "PDGFRB(DKIN) (PDGFR-β) (Homo sapiens, UniProt P09619)",
    "Kd": "< 100 nM"
  },
  {
    "Compound": "CC(=O)c1ccc(N2CCC(C(=O)Nc3ccc(NC(=O)Nc4cc(C(C)(C)C)on4)cc3)CC2)cc1",
    "Experimental target": "PDGFRB(DKIN) (PDGFR-β) (Homo sapiens, UniProt P09619)",
    "Kd": "100 to 1000 nM"
  },
  {
    "Compound": "CC(C)(C)c1cc(N2CCCN(c3ccc(OCc4ccccc4)cc3)C2=O)no1",
    "Experimental target": "PDGFRB(DKIN) (PDGFR-β) (Homo sapiens, UniProt P09619)",
    "Kd": "> 10000 nM"
  },
  {
    "Compound": "CC(C)(C)c1cc(NC(=O)Nc2ccc(OCc3ccccc3)cc2)on1",
    "Experimental target": "PDGFRB(DKIN) (PDGFR-β) (Homo sapiens, UniProt P09619)",
    "Kd": "< 100 nM"
  },
  {
    "Compound": "COC(=O)c1cccc(COc2ccc(NC(=O)Nc3cc(C(C)(C)C)on3)cc2)c1",
    "Experimental target": "PDGFRB(DKIN) (PDGFR-β) (Homo sapiens, UniProt P09619)",
    "Kd": "< 100 nM"
  },
  {
    "Compound": "CC(C)(C)c1cc(NC(=O)Nc2ccc(-c3nc(-c4ccc(Cl)cc4)no3)cc2)no1",
    "Experimental target": "PDGFRB(DKIN) (PDGFR-β) (Homo sapiens, UniProt P09619)",
    "Kd": "100 to 1000 nM"
  },
  {
    "Compound": "CC(C)(C)c1cc(NC(=O)Nc2ccc(NC(=O)C(N)Cc3ccccc3F)cc2)no1 (stereo not drawn)",
    "Experimental target": "PDGFRB(DKIN) (PDGFR-β) (Homo sapiens, UniProt P09619)",
    "Kd": "100 to 1000 nM"
  },
  {
    "Compound": "CC(C)c1nnsc1C(=O)Nc1ccc(NC(=O)Nc2cc(C(C)(C)C)on2)cc1",
    "Experimental target": "PDGFRB(DKIN) (PDGFR-β) (Homo sapiens, UniProt P09619)",
    "Kd": "1000 to 10000 nM"
  },
  {
    "Compound": "CC(C)(C)c1cnc(CSc2cnc(NC(=O)Nc3ccon3)s2)o1",
    "Experimental target": "PDGFRB(DKIN) (PDGFR-β) (Homo sapiens, UniProt P09619)",
    "Kd": "1000 to 10000 nM"
  },
  {
    "Compound": "CC(C)(C)c1cc(NC(=O)Nc2ccc(NC(=O)Cc3ccc(OCc4ccccc4)cc3)cc2)no1",
    "Experimental target": "PDGFRB(DKIN) (PDGFR-β) (Homo sapiens, UniProt P09619)",
    "Kd": "> 10000 nM"
  },
  {
    "Compound": "CC(C)(C)c1cc(NC(=O)Nc2ccc(NC(=O)c3cc4ccccc4[nH]3)cc2)no1",
    "Experimental target": "PDGFRB(DKIN) (PDGFR-β) (Homo sapiens, UniProt P09619)",
    "Kd": "< 100 nM"
  },
  {
    "Compound": "CC(C)(C)c1cc(NC(=O)Nc2ccc(OCc3ccc(OC(F)(F)F)cc3)cc2)no1",
    "Experimental target": "PDGFRB(DKIN) (PDGFR-β) (Homo sapiens, UniProt P09619)",
    "Kd": "< 100 nM"
  },
  {
    "Compound": "CC(C)(C)c1cc(NC(=O)Nc2ccc(NC(=O)c3coc(-c4ccc(Cl)cc4)n3)cc2)no1",
    "Experimental target": "PDGFRB(DKIN) (PDGFR-β) (Homo sapiens, UniProt P09619)",
    "Kd": "100 to 1000 nM"
  },
  {
    "Compound": "CC(C)(C)c1cc(NC(=O)Nc2ccc(NC(=O)C3CCCCC3)cc2)no1",
    "Experimental target": "PDGFRB(DKIN) (PDGFR-β) (Homo sapiens, UniProt P09619)",
    "Kd": "100 to 1000 nM"
  },
  {
    "Compound": "Cn1nc(C(F)(F)F)c(C(=O)Nc2ccc(NC(=O)Nc3cc(C(C)(C)C)on3)cc2)c1Cl",
    "Experimental target": "PDGFRB(DKIN) (PDGFR-β) (Homo sapiens, UniProt P09619)",
    "Kd": "100 to 1000 nM"
  },
  {
    "Compound": "CC(C)(C)c1cc(NC(=O)Nc2ccc(OC/C=C/c3ccccc3Cl)cc2)no1",
    "Experimental target": "PDGFRB(DKIN) (PDGFR-β) (Homo sapiens, UniProt P09619)",
    "Kd": "< 100 nM"
  },
  {
    "Compound": "CC(C)(C)c1cc(NC(=O)Nc2ccc(NC(=O)c3cc4cc(Br)ccc4s3)cc2)no1 [Compound N126]",
    "Experimental target": "PDGFRB(DKIN) (PDGFR-β) (Homo sapiens, UniProt P09619)",
    "Kd": "100 to 1000 nM"
  },
  {
    "Compound": "COc1cc(OC)nc(Oc2cccnc2C(=O)Nc2ccc(NC(=O)Nc3cc(C(C)(C)C)on3)cc2)n1",
    "Experimental target": "PDGFRB(DKIN) (PDGFR-β) (Homo sapiens, UniProt P09619)",
    "Kd": "1000 to 10000 nM"
  },
  {
    "Compound": "Cc1ccc(-n2nc(C(C)(C)C)cc2NC(=O)Nc2ccc(C(C)C)cc2)cc1 [Compound D1]",
    "Experimental target": "PDGFRB(DKIN) (PDGFR-β) (Homo sapiens, UniProt P09619)",
    "Kd": "> 10000 nM"
  },
  {
    "Compound": "CC(C)(C)c1cc(NC(=O)Nc2ccc(Nc3ccnc(N)n3)cc2)no1",
    "Experimental target": "PDGFRB(DKIN) (PDGFR-β) (Homo sapiens, UniProt P09619)",
    "Kd": "100 to 1000 nM"
  },
  {
    "Compound": "CC(C)(C)c1cc(NC(=O)Nc2ccc(Nc3nc(N)nc4[nH]cnc34)cc2)no1",
    "Experimental target": "PDGFRB(DKIN) (PDGFR-β) (Homo sapiens, UniProt P09619)",
    "Kd": "< 100 nM"
  },
  {
    "Compound": "C[C@H](NC(=O)c1ccc(NC(=O)Nc2cc(C(C)(C)C)on2)cc1)c1ccccc1",
    "Experimental target": "PDGFRB(DKIN) (PDGFR-β) (Homo sapiens, UniProt P09619)",
    "Kd": "100 to 1000 nM"
  },
  {
    "Compound": "CC(C)(C)c1cc(NC(=O)Nc2ccc(OCCc3ccncc3)cc2)no1",
    "Experimental target": "PDGFRB(DKIN) (PDGFR-β) (Homo sapiens, UniProt P09619)",
    "Kd": "< 100 nM"
  }
]
